Values compiled from ChEMBL document CHEMBL1144020.

- Method notes: Cmax in C57BL/6 mouse retina at 137 nM instilled per eye
- Type: ADME, organism-based
- Design: dose 137 nM, route ophthalmic
- Experimental context: topical or ocular, 137 nM per eye
Measurement name: Cmax at 0.137 µM (µM)
Form entry: value (µM) — number only.

Reported Cmax at 0.137 µM for Cc1cc(-c2cc(O)ccc2Cl)cc2nnc(Nc3ccc(OCCN4CCCC4)cc3)nc12 was 3.6

* * *

- Method notes: AUC (0 to 24 hrs) in C57BL/6 mouse choroid/sclera at 172 nM instilled per eye
- Type: ADME, organism-based
- Set-up: dose 172 nM, time < 24 hr, route ophthalmic
- Experimental context: topical or ocular, 172 nM per eye
Measurement name: AUC(0-t) at 24 h, 0.172 µM (µg·h/mL)
Give the value in µg·h/mL but do not write µg·h/mL after it.

AUC(0-t) at 24 h, 0.172 µM recorded for this compound, Cc1cc(-c2cc(OC(=O)c3ccccc3)ccc2Cl)cc2nnc(Nc3ccc(OCCN4CCCC4)cc3)nc12 [TG100-801] , is 430
